Sourced from patent US10597388B2

# Tested on: oilseed rape (Brassica napus)
# protocol-details: Test D controlled growth environment herbicide test, pre- and postemergence
# Assay type: in vivo
# study-conditions: Postemergence, 31 g ai/ha; scale 0 to 100 (0 no effect, 100 complete control)
Measured Oilseed Rape plant response rating, listed per entry.
readout: Oilseed Rape plant response rating

> print(dat)
                                    compound                             readout  numeric.result
 1  Cc1cc(C)c2sc(C)c(-c3c(O)c(C)nn(C)c3=O)c2c1 [Compound 2]  Oilseed Rape plant response rating              20
 2  Cc1nn(C)c(=O)c(-c2c(C)sc3c(C)cc(Cl)cc23)c1O [Compound 35]  Oilseed Rape plant response rating              95
 3  Cc1nn(C)c(=O)c(-c2cccc3ccc(Br)cc23)c1O [Compound 126]  Oilseed Rape plant response rating              60
 4  Cc1cc2ccccc2c(-c2c(O)c(C)nn(C)c2=O)c1C [Compound 34]  Oilseed Rape plant response rating              65
 5  Cc1cc(C)c2ccccc2c1-c1c(O)c(C)nn(C)c1=O [Compound 21]  Oilseed Rape plant response rating              80
 6  Cc1nn(C)c(=O)c(-c2ccc(F)c3ccccc23)c1O [Compound 41]  Oilseed Rape plant response rating               0
 7  CCCC(=O)Oc1c(C)nn(C)c(=O)c1-c1c(C)sc2ccc(C)cc12 [Compound 105]  Oilseed Rape plant response rating               0
 8  Cc1nn(C)c(=O)c(-c2ccc(Br)c3ccccc23)c1O [Compound 75]  Oilseed Rape plant response rating              70
 9  Cc1nn(C)c(=O)c(-c2cccc3ccccc23)c1O [Compound 11]  Oilseed Rape plant response rating               0
10  Cn1nc(Br)c(O)c(-c2cccc3ccccc23)c1=O [Compound 20]  Oilseed Rape plant response rating               0
